# Assay procedure: growth inhibitors of H69AR lung tumor, primary screen, human, duplicate replicates (AID 580);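 note: 100% = mean luminescence of untreated wells and 0% = no signal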
# Stated conditions: H69AR lung tumor cells viability, ATP luminescence, 72 h; at 10 µM; active compounds read low
Measure: viability (%)
Give bare numbers, in %.

- COc1cccc(-c2cc(C(=O)N3CCc4ccccc4C3)no2)c1: 96.8
- CCOC(=O)C1=C(CC)Nc2ccccc2N=C1NC(=O)Cn1cnc2ccccc2c1=O: 103
- O=c1[nH]c(NCc2ccco2)nnc1Cc1ccccc1Cl: 13.3
- COc1ccc2c(c1)C1(C)CC(C)(C)N2C(=O)N1c1ccccc1 (stereo unspecified): 67.3
- COc1ccc(C2CNC(=O)C2)cc1OC1CCCC1 (stereo unspecified): 109

Field: next compound
Exercise: Can you share its viability? I mean this compound: "O=C(Nc1ccc(N2CCCCC2)cc1)c1ccc(F)cc1"
Solution: 83.1

----------
# Assay procedure: growth suppression of beta-catenin knockout HCT116, pilot screen, human colon tumor cells (AID 823);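 note: 0% = wells killed by 20 µM Hyamine and 100% = untreated DMSO cell wells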
# Stated conditions: CellTiter-Glo, 60 h, at 10 µM
Records with an inconclusive call do not appear. Calls of active or inactive are those of the source.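 Rule for the calls: active = cell viability at or below a set limit in both duplicate runs, the limit being the all-compound median minus 4 SD (cut at about 23% in these data, passing the limit was not always enough); inconclusive = no clear call, values can overlap the other calls; inactive = the rest.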
Assign a class; possible classes are active, inactive

• CC1CCCN(Cc2nc3c(c(=O)n(C)c(=O)n3C)n2Cc2cccc3ccccc23)C1 (stereo unspecified) = inactive
• CCCc1cc(C(=O)N2CCN(C(c3ccccc3)c3ccccc3)CC2)no1 = inactive
• O=C(Nc1ccc(Cl)cc1)c1ccncc1 = inactive
• CCc1cc(C(=O)Nc2ccccc2)cs1 = inactive
• CCOC(=O)C1CCCN(C(=O)Cn2sc3nc(C)cc(C)c3c2=O)C1 (stereo unspecified) = active
• CCOC(=O)c1ccc(NC(=O)C23CCC(C)(C(=O)O2)C3(C)C)cc1 (stereo unspecified) = inactive
• Cc1cccc(N(C)S(=O)(=O)c2cccc3nsnc23)c1 = inactive
• CCCCNC(=O)c1ccc(NC(=O)C2CCCO2)cc1 (stereo unspecified) = inactive
• CCOc1ccc2nc(N3CCC(C(=O)N4CCN(c5ccccn5)CC4)CC3)sc2c1 = inactive
• COc1cc2c(cc1OC)CN(S(C)(=O)=O)CC2 = inactive

Now look at this entry.
Exercise: Each molecule tested received a call. Report the one for "Cc1cc(NCc2ccc3c(c2)OCO3)n2nc(C)nc2n1" .
Solution: inactive

----------
# Assay procedure: OD615 S. cerevisiae growth inhibition, permissive medium, pilot counter-assay, permissive growth control for S. cerevisiae lifespan shortening project (AID 705)
# Stated conditions: OD615, 24 h, at 10 µM, active compounds read high
Would you mind labelling by growth inhibition? At or over -10% is label 1, under is label 0.

Example results:
• C=CCc1cc(/C=N/n2cnnc2)cc(OCC)c1O = label 0
• CCCCn1c(C(C)NC(=O)c2cccs2)nc2ccccc21 (stereo unspecified) = label 0
• COc1ccc(Oc2ccc(S(=O)(=O)N3CCCCC3)cc2S(=O)(=O)N2CCCCC2)cc1 = label 1
• CC(C)(C)SCCNS(=O)(=O)c1ccccc1 = label 1
• Cn1ccnc1SCC(=O)NC1CCCCC1 = label 0

Exercise: # check: growth inhibition of CCC1CCCCN1C(=O)Cn1c(=O)oc2ccccc21 (stereo unspecified) is greater than or equal to -10%
Solution: label 1

----------
Please go through the items and note down their viability.
# Assay procedure: growth inhibitors of H69AR lung tumor, primary screen, human, duplicate replicates (AID 580);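 note: 100% = mean luminescence of untreated wells and 0% = no signal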
# Stated conditions: H69AR lung tumor cells viability, ATP luminescence, 72 h; at 10 µM; active compounds read low
Answers are plain numbers, in %.

Use the examples below as a reference point.
* O=S(=O)(Nc1nc2ccccc2nc1NCc1ccco1)c1ccc(Cl)cc1 | 65.3
* CCCN1CCN(C(=O)Cn2c(=O)oc3cc(S(=O)(=O)NCc4ccccc4)ccc32)CC1 | 95.3
* CC1CCc2cc(F)cc3c(=O)c(C(=O)O)cn1c23 (stereo unspecified) | 104
* Cc1c(NC(=O)CN2c3cccc4cccc(c34)S2(=O)=O)c(=O)n(-c2ccccc2)n1C | 102
* COC(=O)c1ccccc1NC(=O)c1noc2c1CCC2 | 74.8

// each listed compound needs a value for viability
1. COc1ccc(OC)c(C(=O)c2coc3ccc(O)c(CN4CCOCC4)c23)c1
2. CC(=O)N1C(=O)C2(C(C#N)=C(N)Oc3cc(C)oc(=O)c32)c2ccccc21 (stereo unspecified)
3. O=c1c[n+]([O-])c2ccccc2n1OCc1c(F)cccc1F
4. O=C(COc1ccccc1)Nc1nc2ccccc2[nH]1

Solution:
1: 90.1; 2: 88.1; 3: 88.2; 4: 91.5

// each listed compound needs a value for viability
1. COc1ccc(C2N(C(=O)c3ccccc3)CCN2C(=O)c2ccccc2)cc1
2. CC(C(=O)Nc1ccccc1-c1ccccc1)N1CCOCC1 (stereo unspecified)

Solution:
1. 103
2. 96.1
